The measured values listed here are drawn from paper PMC4215513.

- testSystem: tissue plasminogen activator (tPA) (Homo sapiens)
- Construct: Human recombinant tPA (Activase)
- Sequence (P00750 36-562): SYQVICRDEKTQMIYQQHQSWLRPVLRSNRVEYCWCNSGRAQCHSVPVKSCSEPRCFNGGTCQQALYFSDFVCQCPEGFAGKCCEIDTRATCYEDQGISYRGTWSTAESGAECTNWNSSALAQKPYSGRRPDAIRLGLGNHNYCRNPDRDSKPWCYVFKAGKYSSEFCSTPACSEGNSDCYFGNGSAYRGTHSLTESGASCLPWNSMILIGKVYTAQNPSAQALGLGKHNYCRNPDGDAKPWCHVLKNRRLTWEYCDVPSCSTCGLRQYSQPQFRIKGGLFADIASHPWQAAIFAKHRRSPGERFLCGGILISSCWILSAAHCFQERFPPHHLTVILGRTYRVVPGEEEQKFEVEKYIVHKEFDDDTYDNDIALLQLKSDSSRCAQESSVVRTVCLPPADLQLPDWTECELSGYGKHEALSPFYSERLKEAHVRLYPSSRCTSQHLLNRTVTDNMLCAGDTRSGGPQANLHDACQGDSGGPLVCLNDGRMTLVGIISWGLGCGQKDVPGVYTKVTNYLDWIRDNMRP
- assayRemarks: chromogenic substrate protease assay with recombinant tPA; […] inhibition at […]; IC50 extrapolated ([…] min […], […] min […])
endpoint: IC50

COc1cc(/C=C/c2cc(/C=C/c3ccc(O)c(OC)c3)n(-c3ccccc3)n2)ccc1O: ~65.2 µM
